System: IL-12 induced STAT4 phophorylation mediated by Tyk2/JAK2 (heterodimeric complex)
Test: IL-12 Induced pSTAT4 in Human PBMC
Type: cell-based
Details: 1.7 ng/mL IL-12
Would you kindly list IC50 for each of these compounds?

Hi! Can you tell me IC50 for each of these compounds?
1. CNc1cc(Nc2cccnc2OC2CC2)nc2c(C(=O)NC3CCC3O)cnn12 (centres unmarked) [I-392]
2. CNc1cc(Nc2cccn([C@H]3CCC[C@@H](O)C3)c2=O)nc2c(C(=O)N[C@H]3CC[C@@H]3OC)cnn12
3. CNc1cc(Nc2cccn(-c3nc(C)c(C)s3)c2=O)nc2c(C(=O)N[C@H]3C[C@H]3F)cnn12
4. CNc1cc(Nc2cccn(-c3cccc(F)c3)c2=O)nc2c(C(=O)N[C@@H]3CC[C@H]3O)cnn12
5. CNc1cc(Nc2cccn(-c3ccc(F)cc3)c2=O)nc2c(C(N)=O)cnn12

Marked response:
< 100 nM
< 100 nM
< 100 nM
< 100 nM
100 to 500 nM

Hi! Can you tell me IC50 for each of these compounds?
1. CNc1cc(-c2cn(C(C)C)c3ncccc23)nc2c(C(=O)N[C@H]3CC[C@H]3O)cnn12
2. CNc1cc(Nc2cc(C)cnc2OCCOC)nc2c(C(=O)NC3CC3)cnn12
3. CNc1cc(Nc2cccn(C3CCCN(CCF)C3)c2=O)nc2c(C(=O)N[C@@H]3C[C@@H]3F)cnn12 (some centres unmarked)

Marked response:
["< 100 nM", "100 to 500 nM", "100 to 500 nM"]
